target: USP7 (Homo sapiens, UniProt Q93009); construct: full length human USP7 protein; made in house; assay: USP7, Ub-PLA2 assay; assay type: biochemical; conditions: Ub-PLA2 / NBD C6-HPC fluorescence, 30 minute preincubation; read-out: EC50 for inhibition of USP7
Sequence (Q93009 whole entry): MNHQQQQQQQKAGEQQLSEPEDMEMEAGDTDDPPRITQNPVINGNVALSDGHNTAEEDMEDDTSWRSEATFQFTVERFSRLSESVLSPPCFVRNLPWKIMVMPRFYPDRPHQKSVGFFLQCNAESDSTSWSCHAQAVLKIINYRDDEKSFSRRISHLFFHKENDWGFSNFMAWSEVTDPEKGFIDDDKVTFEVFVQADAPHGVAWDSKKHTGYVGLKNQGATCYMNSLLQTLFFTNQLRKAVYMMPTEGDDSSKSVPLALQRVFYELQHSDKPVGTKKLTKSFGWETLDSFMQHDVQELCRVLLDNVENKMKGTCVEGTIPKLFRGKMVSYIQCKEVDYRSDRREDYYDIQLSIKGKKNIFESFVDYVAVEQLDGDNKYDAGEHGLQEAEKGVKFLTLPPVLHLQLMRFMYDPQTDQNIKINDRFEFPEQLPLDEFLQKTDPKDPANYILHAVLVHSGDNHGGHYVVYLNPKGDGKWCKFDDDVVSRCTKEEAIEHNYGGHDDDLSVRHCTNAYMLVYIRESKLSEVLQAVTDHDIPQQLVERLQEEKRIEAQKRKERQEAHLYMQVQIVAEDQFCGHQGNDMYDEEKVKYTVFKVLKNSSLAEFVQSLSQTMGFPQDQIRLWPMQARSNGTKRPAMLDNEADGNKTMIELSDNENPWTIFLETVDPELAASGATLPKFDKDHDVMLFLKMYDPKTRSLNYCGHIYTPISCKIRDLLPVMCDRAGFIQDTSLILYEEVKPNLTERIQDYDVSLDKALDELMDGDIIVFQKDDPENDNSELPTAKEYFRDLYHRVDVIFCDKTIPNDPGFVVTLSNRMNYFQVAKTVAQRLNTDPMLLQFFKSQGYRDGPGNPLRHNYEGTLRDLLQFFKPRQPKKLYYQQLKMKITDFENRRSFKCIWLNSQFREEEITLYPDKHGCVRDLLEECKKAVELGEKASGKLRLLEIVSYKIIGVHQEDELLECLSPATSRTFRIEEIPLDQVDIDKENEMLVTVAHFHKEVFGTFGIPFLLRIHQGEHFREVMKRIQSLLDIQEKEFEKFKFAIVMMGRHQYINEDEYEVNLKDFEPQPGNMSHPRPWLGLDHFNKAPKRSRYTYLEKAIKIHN
reportedMetric: EC50

Known EC50 results, listed for orientation:
[[record]]
compound = "O=C(NCc1ccc(O)cc1)c1cc([N+](=O)[O-])c(Sc2c(Cl)cncc2Cl)s1"
readoutvalue = "≤ 1000 nM"

[[record]]
compound = "O=C(CNC(=O)c1cc([N+](=O)[O-])c(Sc2c(Cl)cncc2Cl)s1)NC1CCCCC1"
readoutvalue = "1000 to 10000 nM"

[[record]]
compound = "O=C(NC1CC2CCC1C2)c1cc([N+](=O)[O-])c(Sc2c(Cl)cncc2Cl)s1 (centres unmarked)"
readoutvalue = "≤ 1000 nM"

[[record]]
compound = "CN(C)CCC(=O)c1cc([N+](=O)[O-])c(Sc2ccc(Cl)cc2Cl)s1"
readoutvalue = "1000 to 10000 nM"

[[record]]
compound = "CCn1cnc(NC(=O)c2cc([N+](=O)[O-])c(Sc3c(Cl)cncc3Cl)s2)n1"
readoutvalue = "≤ 1000 nM"

[[record]]
compound = "O=C(Nc1ccc2c(c1)CCC2)c1cc([N+](=O)[O-])c(Sc2c(Cl)cncc2Cl)s1"
readoutvalue = "≤ 1000 nM"

[[record]]
compound = "CN(C)C(=O)c1cc([N+](=O)[O-])c(Sc2c(Cl)cncc2Cl)s1"
readoutvalue = "1000 to 10000 nM"


As a next step, examine the compound that follows.
Note to self: EC50 recorded for O=C(NC12CC3CC(CC(O)(C3)C1)C2)c1cc([N+](=O)[O-])c(Sc2c(Cl)cncc2Cl)s1 was ≤ 1000 nM

* * *

biological target: USP7 (Homo sapiens, UniProt Q93009); construct: full length human USP7 protein; assay: USP7, Ub-PLA2 assay; conditions: Ub-PLA2 / NBD C6-HPC fluorescence, 30 minute preincubation; read-out: EC50 for inhibition of USP7
pEC50: −log10 of the molar value.
reportedMetric: pEC50

[[record]]
compound = "CCOC(=O)c1cc([N+](=O)[O-])c(Sc2cccc(Cl)c2Cl)s1 [Example 41]"
testedsystem = "USP7 (Homo sapiens, UniProt Q93009)"
reportedmetric = "pEC50"
readoutvalue = "< 5.00"


Lab note: each compound below needs its pEC50 filled in.
1. O=C(NCCc1cccs1)c1cc([N+](=O)[O-])c(Sc2c(Cl)cncc2Cl)s1 [Example 55]
2. CN1CCCC(NC(=O)c2cc([N+](=O)[O-])c(Sc3c(Cl)cncc3Cl)s2)C1 (centres unmarked) [Example 189]
3. O=C(NCC(=O)N1CCC(O)CC1)c1cc([N+](=O)[O-])c(Sc2c(Cl)cncc2Cl)s1 [Example 211]
4. O=C(CNC(=O)c1cc([N+](=O)[O-])c(Sc2c(Cl)cncc2Cl)s1)NCC(F)F [Example 219]
5. CC(=O)c1cc([N+](=O)[O-])c(Sc2cnc3ccccc3n2)s1 [Example 37]
6. COc1ccc(CNC(=O)c2cc([N+](=O)[O-])c(Sc3c(Cl)cncc3Cl)s2)cc1OC [Example 98]

Ans:
1: 5.00 to 6.00; 2: ≥ 6.00; 3: 5.00 to 6.00; 4: 5.00 to 6.00; 5: 5.00 to 6.00; 6: ≥ 6.00

Lab note: each compound below needs its pEC50 filled in.
1. O=C(NCCCN1CCC(O)CC1)c1cc([N+](=O)[O-])c(Sc2c(Cl)cncc2Cl)s1 [Example 225]
2. CC(=O)c1cc([N+](=O)[O-])c(Sc2c(Cl)cccc2Cl)s1 [Example 7]
3. O=C(Nc1ccc(F)c(C(F)(F)F)c1)c1cc([N+](=O)[O-])c(Sc2c(Cl)cncc2Cl)s1 [Example 140]
4. COC(=O)c1cc([N+](=O)[O-])c(Sc2nc3nc(C)cc(C)n3n2)s1 [Example 266]
5. O=C(NCCC1CCN(Cc2ccccc2)C1)c1cc([N+](=O)[O-])c(Sc2c(Cl)cncc2Cl)s1 (centres unmarked) [Example 84]
6. CC(O)c1cc([N+](=O)[O-])c(Sc2ccc(Cl)cc2Cl)s1 (centres unmarked) [Example 26]

Ans:
1: ≥ 6.00; 2: 5.00 to 6.00; 3: ≥ 6.00; 4: < 5.00; 5: < 5.00; 6: < 5.00

Lab note: each compound below needs its pEC50 filled in.
1. O=C(NCCc1cccnc1)c1cc([N+](=O)[O-])c(Sc2c(Cl)cncc2Cl)s1 [Example 108]
2. CC(C)N1CCC(NC(=O)c2cc([N+](=O)[O-])c(Sc3nc4ccccc4s3)s2)CC1 [Example 253]
3. O=C(NCc1ccc(OC(F)(F)F)cc1)c1cc([N+](=O)[O-])c(Sc2c(Cl)cncc2Cl)s1 [Example 114]
4. CSCCNC(=O)c1cc([N+](=O)[O-])c(Sc2c(Cl)cncc2Cl)s1 [Example 50]

Ans:
1. ≥ 6.00
2. 5.00 to 6.00
3. ≥ 6.00
4. 5.00 to 6.00
